Values compiled from the supplement of paper PMC9694430.

- Tested on: LOC_OS01G63280-cb003
- test_method_notes: thermal shift delta Tm vs DMSO control; higher = stronger stabilization (binding);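 further: purified Escherichia coli-expressed rice kinase domain construct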
- test_conditions: 12.5 µM; protein concentration 2 µM
Class membership depends on thermal shift delta Tm alone; the intervals are range A (below 0.05 °C), range B (0.05 °C to below 0.4 °C), range C (0.4 °C or more)

Completed entries (count: 4):
C=C[C@@](C)(/C=C/c1ccc(O)cc1)CCC=C(C)C : range C
CN1CCN(c2ccc(C(=O)Nc3n[nH]c4ccc(Cc5cc(F)cc(F)c5)cc34)c(NC3CCOCC3)c2)CC1 [Entrectinib (RXDX-101)] : range A
CNC(=O)c1ccc(C)c(-n2c(C)cc(OCc3ccc(F)cc3F)c(Br)c2=O)c1 : range B
COc1cc(Nc2c(C#N)cnc3cc(OCCCN4CCN(C)CC4)c(OC)cc23)c(Cl)cc1Cl [Bosutinib (SKI-606)] : range A

Data request: Quick check: band for Cc1cc(Nc2cc(Cl)nc(Oc3ccc([N+](=O)[O-])cc3)n2)n[nH]1
Data returned: range C

Data request: Quick check: band for Cc1ccc([N+](=O)[O-])cc1S(=O)(=O)N(C)/N=C/c1cnc2ccc(Br)cn12
Data returned: range C

Data request: Quick check: band for COc1ccc(-c2nc(N3CCOCC3)c3sc(CN(C)c4ncc(C(=O)NO)cn4)cc3n2)cn1
Data returned: range B

Data request: Quick check: band for CC(C)(O)CNc1ncc(-c2ccnc(Nc3ccnc(Cl)c3)n2)c(CC2CC2)n1
Data returned: range A

---

Task for the reader: assign each of the following compounds its reported thermal shift delta Tm.
- System: LOC_OS07G07230-cb001
- test_method_notes: thermal shift delta Tm vs DMSO control; higher = stronger stabilization (binding)
- test_conditions: 12.5 µM; protein concentration 2 µM

Below, 3 compounds whose answers are already recorded.
C=CC(=O)Nc1cccc(Sc2nc(Nc3ccc(N4CCN(C)CC4)cc3)ncc2Cl)c1 : 0.95 °C
CN(C)S(=O)(=O)c1ccc2c(c1)/C(=C/c1cc3c([nH]1)CCCC3)C(=O)N2 : 0.86 °C
CCCNC(=O)Nc1ccc(Oc2ncnc3cc(OC)c(OC)cc23)cc1Cl : 0.03 °C

Provide reported thermal shift delta Tm for each item, in the same order as listed.
1. CC(C)(C)NC(=O)c1cncn1C1CCN(c2ccc(-c3nnc(C(F)(F)F)o3)cn2)CC1
2. CNC(=O)c1cc(Oc2ccc(NC(=O)Nc3ccc(Cl)c(C(F)(F)F)c3)c(F)c2)ccn1
3. C[C@@H](N)c1ccc(C(=O)Nc2ccnc3[nH]ccc23)cc1

Data returned:
1. 0.57 °C
2. 0.35 °C
3. -0.1 °C

Provide reported thermal shift delta Tm for each item, in the same order as listed.
1. O=C(O[C@@H]1Cc2c(O)cc(O)cc2O[C@@H]1c1cc(O)c(O)c(O)c1)c1cc(O)c(O)c(O)c1 [(-)-Epigallocatechin Gallate]
2. Oc1c2ccccc2c2c3c(cccc13)N=N2
3. CN1CCN(Cc2ccc(-c3cnc4[nH]cc(-c5ccc6[nH]ccc6c5)c4c3)cc2)CC1

Data returned:
["0.18 °C", "-0.13 °C", "0.61 °C"]

---

- Test system: LOC_OS01G52050-cb004
- Sequence (as listed by the source): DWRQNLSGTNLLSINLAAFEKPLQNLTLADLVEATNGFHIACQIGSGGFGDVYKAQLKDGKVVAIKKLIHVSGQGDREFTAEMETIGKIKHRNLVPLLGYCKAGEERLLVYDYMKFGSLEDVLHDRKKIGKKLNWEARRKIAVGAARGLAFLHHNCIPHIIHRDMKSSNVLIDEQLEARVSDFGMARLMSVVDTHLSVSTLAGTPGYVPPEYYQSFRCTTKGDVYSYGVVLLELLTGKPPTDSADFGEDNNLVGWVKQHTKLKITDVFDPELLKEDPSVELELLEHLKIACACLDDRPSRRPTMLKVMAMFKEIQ
- test_method_notes: thermal shift delta Tm vs DMSO control; higher = stronger stabilization (binding)
- test_conditions: 12.5 µM; protein concentration 2 µM
Short version: thermal shift delta Tm at least 0.5 °C is met, less is not met.

Completed entries (count: 3):
Cn1c(=O)c(F)c(Nc2ccc(I)cc2F)c2c(=O)n(C[C@@H](O)CO)cnc21 : not met
O=C(/C=C/c1ccc(O)c(O)c1)c1ccc(O)cc1O : met
NC(=O)c1ccc(N(C(N)=O)c2c(F)cccc2F)nc1-c1ccc(F)cc1F : not met

Data request: hey, is thermal shift delta Tm for this one >= 0.5 °C? O=C1NC(=O)C(=Cc2ccc(-c3ccc(F)cc3)o2)S1 (stereo in doubt)
Data returned: met

Data request: hey, is thermal shift delta Tm for this one >= 0.5 °C? CCCS(=O)(=O)Nc1ccc(F)c(C(=O)c2c[nH]c3ncc(Cl)cc23)c1F
Data returned: met
